Reference for the values: paper PMC7114193

TARGET_OR_SYSTEM: rhACE2 (Homo sapiens)
Sequence (Q9BYF1 18-740): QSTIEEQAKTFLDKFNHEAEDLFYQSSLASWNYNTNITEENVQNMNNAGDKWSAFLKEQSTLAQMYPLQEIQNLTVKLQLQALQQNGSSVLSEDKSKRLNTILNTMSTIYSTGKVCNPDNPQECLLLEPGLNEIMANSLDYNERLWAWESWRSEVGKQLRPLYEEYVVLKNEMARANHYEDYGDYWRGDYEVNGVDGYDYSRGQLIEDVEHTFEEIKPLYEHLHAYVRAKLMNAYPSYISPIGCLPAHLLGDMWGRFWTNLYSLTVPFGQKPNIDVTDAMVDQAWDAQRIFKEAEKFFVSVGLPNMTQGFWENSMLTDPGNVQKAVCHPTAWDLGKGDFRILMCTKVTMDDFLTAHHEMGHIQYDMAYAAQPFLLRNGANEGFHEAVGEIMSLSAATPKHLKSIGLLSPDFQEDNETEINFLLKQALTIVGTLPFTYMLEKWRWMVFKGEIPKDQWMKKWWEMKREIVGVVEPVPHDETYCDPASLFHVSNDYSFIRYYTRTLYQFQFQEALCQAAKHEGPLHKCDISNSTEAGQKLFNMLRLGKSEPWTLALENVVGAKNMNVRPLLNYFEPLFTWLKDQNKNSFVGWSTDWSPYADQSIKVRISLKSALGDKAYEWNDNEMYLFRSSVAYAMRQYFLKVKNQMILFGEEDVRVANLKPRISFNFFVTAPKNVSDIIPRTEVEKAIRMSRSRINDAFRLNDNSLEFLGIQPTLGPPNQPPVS
Format: binding
MEASURE_NAME: SPR binding to ACE2 (in words)

[[record]]
substance = "YKYDYL"
result = "No binding was observed"

[[record]]
substance = "YDYRYL"
result = "No binding was observed"

